compounds and their reported %Inh
system: FGFR3; details: concentration: 1 μM, replicates: in singlicate; n = 1;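 note: KINOMEscan kinase panel screen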
Return type: number; implicit unit %.

| CPD SMILES | %Inh [%] |
| --- | --- |
| COc1ccc(Nc2nccc(-c3cccc(NC(=O)c4cc5cc(F)ccc5[nH]4)c3)n2)cc1 | 13 |
| O=C(Nc1n[nH]c2nc(-c3nccs3)c(Br)cc12)C1CCCC1 | 0 |
| CC(C)(C)c1ccc(C(=O)Nc2cn3cc(-c4cccnc4)ccc3n2)cc1 | 16 |

Exam item: Provide only the value of recorded %Inh for `Cl.O=C(Nc1cccc(-c2nn3ncccc3c2-c2ccnc(Nc3cccnc3)n2)c1)c1c(F)cccc1F`
Marked response: 23

Exam item: Output measured %Inh for this item: `Cc1cccc(-c2nc(Nc3ccc4[nH]ncc4c3)c3ccccc3n2)n1`
Marked response: 0
